# system.tested: Cellular tumor antigen p53 (Homo sapiens) (UniProt P04637)
# Sequence (P04637 whole entry, looked up): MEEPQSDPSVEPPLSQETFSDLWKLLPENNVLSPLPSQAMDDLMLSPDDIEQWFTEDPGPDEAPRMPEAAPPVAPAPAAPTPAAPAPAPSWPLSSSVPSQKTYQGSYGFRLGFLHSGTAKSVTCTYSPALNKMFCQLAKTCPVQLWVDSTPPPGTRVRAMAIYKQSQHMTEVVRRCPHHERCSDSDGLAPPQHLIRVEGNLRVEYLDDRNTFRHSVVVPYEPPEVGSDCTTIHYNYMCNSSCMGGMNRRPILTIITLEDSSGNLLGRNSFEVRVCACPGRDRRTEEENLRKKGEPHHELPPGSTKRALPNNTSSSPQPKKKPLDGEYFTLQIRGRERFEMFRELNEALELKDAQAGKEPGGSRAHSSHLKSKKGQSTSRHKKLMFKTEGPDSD
# run.description: TOX21_p53_BLA_p2_ratio: Tox21 HCT-116 p53 Agonism Beta-lactamase Assay, Ratio, Phase 2 (AID 2283592)
Records with an inconclusive call do not appear. Calls of active or inactive are those of the source. The calls were made as follows: active = hit-call score of the fitted dose curve at least 0.9, where 1 is the maximum; inconclusive = response in the unintended direction; inactive = score below 0.9.
Your answer must be one of the following: active, inactive

# molecule, cat
records = [
    ("CNCc1ccc(NC(=O)c2c[nH]c3c2C(=O)CCC3)cc1", "inactive"),
]

Next item in the queue.
Query :: For this molecule, state the assay outcome: `COCCOCCOCCOC`
Result :: inactive

----------
# system.tested: human Esterase Plasma (ES), BCHE (gene 590) (UniProt P06276)
# Sequence (P06276 whole entry, looked up): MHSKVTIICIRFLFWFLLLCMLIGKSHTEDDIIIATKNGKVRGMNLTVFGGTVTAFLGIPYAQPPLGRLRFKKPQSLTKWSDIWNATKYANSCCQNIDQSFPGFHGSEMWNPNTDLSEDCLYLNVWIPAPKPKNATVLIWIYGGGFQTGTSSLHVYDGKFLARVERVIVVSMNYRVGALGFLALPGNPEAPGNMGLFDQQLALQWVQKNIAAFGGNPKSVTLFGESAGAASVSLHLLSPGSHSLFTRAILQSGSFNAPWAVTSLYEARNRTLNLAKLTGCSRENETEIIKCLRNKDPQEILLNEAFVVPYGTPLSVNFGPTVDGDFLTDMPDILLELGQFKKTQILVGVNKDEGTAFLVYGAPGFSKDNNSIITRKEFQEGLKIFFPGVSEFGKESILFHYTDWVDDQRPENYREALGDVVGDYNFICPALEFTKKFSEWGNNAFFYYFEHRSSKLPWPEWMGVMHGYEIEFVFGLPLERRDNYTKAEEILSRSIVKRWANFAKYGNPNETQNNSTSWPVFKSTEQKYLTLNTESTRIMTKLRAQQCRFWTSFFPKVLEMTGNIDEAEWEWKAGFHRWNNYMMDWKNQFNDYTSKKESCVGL
# run.description: NVS_ENZ_hES: NovaScreen (NVS) Enzymatic Assay for human Esterase Plasma (ES) (AID 2283157)
# Method: NVS_ENZ_hES is a biochemical, single-readout assay that uses extracted gene-proteins from Human plasma in a cell-free assay. Measurements were taken 0.25 hour after chemical dosing in a 96-well plate.NVS_ENZ_hES is one of one assay component(s) measured or calculated from the NVS_ENZ_hES assay. […] This assay endpoint, NVS_ENZ_hES, was analyzed in the positive analysis fitting direction relative to DMSO as the negative control and baseline of activity. […]
Records with an inconclusive call do not appear. Active and inactive are the calls of the source. How the source made its calls: active means hit-call score of the fitted dose curve at least 0.9, where 1 is the maximum; inconclusive means response in the unintended direction; inactive means score below 0.9.
Your answer must be one of the following: 1 (yes) for active, 0 (no) for inactive

A selection of reference data follows.
# molecule, system.tested, cat
measured = [
    ("CCOC(=O)COc1ccc2c(c1)CC(NCC(O)c1cccc(Cl)c1)CC2 (stereo not drawn)", "human Esterase Plasma (ES), BCHE (gene 590) (UniProt P06276)", "1 (yes)"),
    ("O=C(O)CC(O)C(=O)O (stereo not drawn)", "human Esterase Plasma (ES), BCHE (gene 590) (UniProt P06276)", "0 (no)"),
]

Query :: For this molecule, state the assay outcome: `CCCN(C1CCN(C(=O)C2CCNCC2)CC1)[C@@H]1CCc2ccc(OC)cc2C1`
Result :: 0 (no)

----------
# run.description: APR_HepG2_CellLoss_72hr: Apredica 72-hour HepG2 Assay for Cell Loss (AID 2282915)
# condition.summary: high-content imaging
Activity calls are given as the source filed them. How the source made its calls: active means hit-call score of the fitted dose curve at least 0.9, where 1 is the maximum; inactive means score below 0.9.
Your answer must be one of the following: active, inactive

A selection of reference data follows.
# compound, cat
data = [
    ("CC(=O)c1ccc2c(c1)[C@H](NC(=O)c1ccc(F)cc1)[C@@H](O)C(C)(C)O2", "inactive"),
    ("CC(C)(O)c1coc(S(=O)(=O)NC(=O)Nc2c3c(cc4c2CCC4)CCC3)c1", "inactive"),
    ("O=C1CCCCCN1", "inactive"),
    ("Cc1[nH]cnc1C[C@H]1CCc2c(C)c3ccccc3n2C1=O", "active"),
    ("CCc1cc(SCc2sc(-c3ccc(C(F)(F)F)cc3)nc2CN2CCN(c3ccc(OC)cc3)CC2)ccc1OCC(=O)O", "active"),
]

Query :: For this compound, state the assay outcome: `Nc1nc2ncc(CNc3ccc(C(=O)N[C@@H](CCC(=O)O)C(=O)O)cc3)nc2c(=O)[nH]1`
Result :: inactive

Query :: Same thing, different compound: COc1ccc(-n2nc(C(F)F)cc2-c2ccc(S(C)=O)cc2)cc1 (stereo not given)
Result :: active

Query :: Same thing, different compound: `Cn1c(=O)c2c(ncn2C)n(C)c1=O`
Result :: inactive

Query :: Same thing, different compound: `C=CCCCCCCCCC(=O)O`
Result :: inactive

Query :: Same thing, different compound: `On1ccccc1=S`
Result :: active

Query :: Same thing, different compound: `CC1(C)C(=O)N(Br)C(=O)N1Br`
Result :: inactive

Query :: Same thing, different compound: `Cc1ccc(O)cc1`
Result :: inactive

Query :: Same thing, different compound: CCCCC(CC)COC(=O)c1ccc(C(=O)OCC(CC)CCCC)cc1 (stereo not given)
Result :: inactive

Query :: Same thing, different compound: CCCCC(CC)COC(=O)CCCCCCCCC(=O)OCC(CC)CCCC (stereo not given)
Result :: active

Query :: Same thing, different compound: `CCCC(=O)OCC`
Result :: inactive

Query :: Same thing, different compound: O=C(O)CC(O)C(=O)O (stereo not given)
Result :: inactive

Query :: Same thing, different compound: `CCC(C)(C)C(=O)O[C@H]1C[C@@H](C)C=C2C=C[C@H](C)[C@H](CC[C@@H]3C[C@@H](O)CC(=O)O3)[C@H]21`
Result :: active

Query :: Same thing, different compound: `COC(=O)c1c(Cl)c(Cl)c(C(=O)OC)c(Cl)c1Cl`
Result :: inactive

Query :: Same thing, different compound: `O=C(O)c1cc(N=Nc2ccc(S(=O)(=O)Nc3ccccn3)cc2)ccc1O`
Result :: inactive

Query :: Same thing, different compound: `Cc1ccc(S(=O)(=O)O)cc1C`
Result :: active

----------
# Read-out: Keratin 19 (KRT19), KRT19 (gene 3880)
# run.description: LTEA_HepaRG_KRT19: Life Technologies and Expression Analysis (LTEA) Assay for Keratin 19 (KRT19) using HepaRG (AID 2283512)
# condition.summary: mRNA level, 48 h; actives raise or lower the signal
# Procedure: LTEA_HepaRG is a cell based, multiplexed-readout assay that uses HepaRG, a human liver cell line, with measurements taken at 48 hours after chemical dosing on a 96-well plate.LTEA_HepaRG_KRT19 is one of 102 assay component(s) measured in the LTEA HepaRG cell culture assay. It is a marker of Cell proliferation, survival, death.Data from the assay component LTEA_HepaRG_KRT19 was analyzed into 1 endpoint. […]
The source made the active and inactive calls. Rule for the calls: active = hit-call score of the fitted dose curve at least 0.9, where 1 is the maximum; inactive = score below 0.9.
Your answer must be one of the following: true (1) (active), false (0) (inactive)

A selection of reference data follows.
# compound, cat
data = [
    ("On1ccccc1=S", "false (0)"),
    ("COC(=O)c1ccccc1O", "false (0)"),
    ("CC(C)=CCC/C(C)=C/CO", "false (0)"),
    ("C[C@](N)(Cc1ccc(O)c(O)c1)C(=O)O", "false (0)"),
    ("Nc1ccc(Nc2ccccc2)cc1", "true (1)"),
    ("COC(=O)c1c(Cl)c(Cl)c(C(=O)OC)c(Cl)c1Cl", "false (0)"),
    ("Cc1ccc(N)cc1O", "false (0)"),
    ("NC(=O)NO", "false (0)"),
    ("CCCCC(CC)COC(=O)c1ccc(C(=O)OCC(CC)CCCC)cc1 (stereo not given)", "false (0)"),
    ("COc1ccc(/C=C/S(=O)(=O)NC(=O)c2ccc(C)cc2Cl)cc1", "false (0)"),
]

Next item in the queue.
Query :: For this compound, state the assay outcome: `Nc1cccc(N)c1`
Result :: false (0)

----------
# system.tested: human Serotonin, 5-Hydroxytryptamine Receptor 7 (5HT7), HTR7 (gene 3363)
# run.description: NVS_GPCR_h5HT7: NovaScreen (NVS) G Protein-Coupled Receptor Assay for human Serotonin, 5-Hydroxytryptamine Receptor 7 (5HT7) (AID 2283255);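 also: hits reduce specific radioligand binding relative to DMSO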
# Method: NVS_GPCR_h5HT7 is a biochemical, single-readout assay that uses extracted gene-proteins from CHO in a cell-free assay. Measurements were taken 1 hour after chemical dosing in a 96-well plate.NVS_GPCR_h5HT7 is one of one assay component(s) measured or calculated from the NVS_GPCR_h5HT7 assay. […] This assay endpoint, NVS_GPCR_h5HT7, was analyzed in the positive analysis fitting direction relative to DMSO as the negative control and baseline of activity. […]
Inconclusive results are not listed. Active and inactive are the calls of the source. The calls were made as follows: active = hit-call score of the fitted dose curve at least 0.9, where 1 is the maximum; inconclusive = response in the unintended direction; inactive = score below 0.9.
Your answer must be one of the following: 1.0 for active, 0.0 for inactive

A selection of reference data follows.
# compound, cat
measured = [
    ("CC(=O)OCCC(C)C", 0.0),
    ("Cc1[nH]cnc1C[C@H]1CCc2c(C)c3ccccc3n2C1=O", 1.0),
    ("COc1cccc(-c2ccc(/C=C\\CN3CCCCCC3)cc2Cl)c1", 1.0),
]

Query :: For this compound, state the assay outcome: `Oc1ccc2c(c1)-c1ccccc1C2`
Result :: 0.0

Query :: Same thing, different compound: `CCOc1cccc(-n2cc(C(=O)N3CCN(c4cc(C(=O)O)c5ccccc5c4)CC3)nc2-c2ccc(C)cc2)c1`
Result :: 1.0

Query :: Same thing, different compound: `CCCCCCc1ccc(O)cc1O`
Result :: 1.0

Query :: Same thing, different compound: CNS(=O)(=O)c1cc(C(=O)N2CCC(CCN3C4CCC3CC(n3c(C)nc5ccccc53)C4)(c3cccc(F)c3)CC2)c(Cl)cc1F (stereo not drawn)
Result :: 1.0

Query :: Same thing, different compound: `CC[C@H]1CC[C@H](NCc2cc3c(cc2OC)[C@H]2C[C@H]2C(=O)N3C)[C@H](c2ccccc2)N1`
Result :: 1.0

----------
# run.description: CCTE_Shafer_MEA_dev_correlation_coefficient_mean: CCTE's Neural Network Formation Assay for Mean Correlation Coefficient, Shafer Lab (AID 2284093)
The source made the active and inactive calls. How the source made its calls: active means hit-call score of the fitted dose curve at least 0.9, where 1 is the maximum; inactive means score below 0.9.
Your answer must be one of the following: active, inactive

A selection of reference data follows.
# molecule, cat
rows = [
    ("NC(=O)NO", "inactive"),
    ("COc1ccc(-n2nc(C(F)F)cc2-c2ccc(S(C)=O)cc2)cc1 (configuration not stated)", "inactive"),
    ("CC[C@H](C)C(=O)O[C@H]1C[C@@H](C)C=C2C=C[C@H](C)[C@H](CC[C@@H]3C[C@@H](O)CC(=O)O3)[C@H]21", "active"),
    ("O=P(OC(CCl)CCl)(OC(CCl)CCl)OC(CCl)CCl", "inactive"),
    ("CC[C@H]1OC(=O)[C@H](C)[C@@H](O[C@H]2C[C@@](C)(OC)[C@@H](O)[C@H](C)O2)[C@H](C)[C@@H](O[C@@H]2O[C@H](C)C[C@H](N(C)C)[C@H]2O)[C@](C)(O)C[C@@H](C)C(=O)[C@H](C)[C@@H](O)[C@]1(C)O", "inactive"),
    ("CNCc1ccc(NC(=O)c2c[nH]c3c2C(=O)CCC3)cc1", "inactive"),
]

Next item in the queue.
Query :: For this molecule, state the assay outcome: O=C1CCC(N2C(=O)c3ccccc3C2=O)C(=O)N1 (configuration not stated)
Result :: inactive
